Source listed as PubChem BioAssay AID1030.

assay_target: Aldehyde dehydrogenase 1A1 (Homo sapiens) (UniProt P00352)
Sequence (P00352 whole entry, looked up): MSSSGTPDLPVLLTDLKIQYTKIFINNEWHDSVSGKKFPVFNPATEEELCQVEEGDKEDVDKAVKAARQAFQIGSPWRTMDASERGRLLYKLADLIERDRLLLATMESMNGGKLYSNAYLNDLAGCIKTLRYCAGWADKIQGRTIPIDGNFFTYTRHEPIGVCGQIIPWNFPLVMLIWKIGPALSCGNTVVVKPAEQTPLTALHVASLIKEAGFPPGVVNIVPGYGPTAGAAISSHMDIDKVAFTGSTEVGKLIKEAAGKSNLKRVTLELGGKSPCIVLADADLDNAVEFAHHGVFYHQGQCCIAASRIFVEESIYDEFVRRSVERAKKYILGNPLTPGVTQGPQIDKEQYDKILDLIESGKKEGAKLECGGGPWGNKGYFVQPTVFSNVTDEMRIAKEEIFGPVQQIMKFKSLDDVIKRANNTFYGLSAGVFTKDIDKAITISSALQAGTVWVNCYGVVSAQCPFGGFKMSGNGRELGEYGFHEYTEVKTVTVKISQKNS
assay_procedure: qHTS Assay for Inhibitors of Aldehyde Dehydrogenase 1 (ALDH1A1)
conditions: Purified ALDH1A1, NADH fluorescence, propionaldehyde substrate; series mostly up to 75.3 µM
Hit rate of the full screen: of about 220,000 compounds, about 16,000 (7.3%) were called active. Inconclusive results (about 25%) are left out. Calls come from the whole dose curve; as a rule, active = well fitted inhibition curve with a large enough effect (not every such curve was filed as active); inconclusive = small, poorly fitted or top-dose-only effect, or another doubt; inactive = no such curve, though single readings can be large or run the other way. The sample holds actives, similar compounds and a random draw of the others, so the mix is not that of the screen.
Possible outcomes: active, inactive

>>> print(df.to_string())
                               smiles_string  assigned_category
 0         O=C(COC(=O)c1ccc(Cl)nc1)NCc1cccs1             active
 1  O=C(COC(=O)c1cc(S(=O)(=O)N2CCCCC2)ccc1Cl)NCc1ccco1           inactive
 2  NS(=O)(=O)c1ccc(NC(=O)COC(=O)c2ccc(Cl)nc2)cc1           inactive
 3         O=C(COC(=O)c1ccco1)NCc1ccc(Cl)cc1           inactive
 4  COC(=O)c1ccc(NC(=O)CSc2nnc(CNc3ccc(OC)cc3)n2C)cc1             active
 5  COc1ccc(CC(=O)NCc2nnc(SCC(=O)Nc3nccs3)n2C)cc1           inactive
 6  CCn1c(CNc2ccc(OC)cc2)nnc1SCC(=O)c1ccc(OC)cc1             active
 7     O=C(COC(=O)c1cnc(Cl)c(Cl)c1)NCc1ccco1             active
 8  COC(=O)c1ccc(NC(=O)CSc2nnc(-c3ccncc3)n2C)cc1           inactive
 9  CCn1c(CNC(=O)c2ccc(OC)c(OC)c2)nnc1SCC(=O)Nc1ccccc1           inactive
10  COc1ccc(C(=O)CSc2nnc(COc3ccccc3)n2Cc2ccco2)cc1             active

---

assay_target: Aldehyde dehydrogenase 1A1 (Homo sapiens) (UniProt P00352)
assay_procedure: qHTS Assay for Inhibitors of Aldehyde Dehydrogenase 1 (ALDH1A1)
conditions: Purified ALDH1A1, NADH fluorescence, propionaldehyde substrate; series mostly up to 75.3 µM
Hit rate of the full screen: of about 220,000 compounds, about 16,000 (7.3%) were called active. Inconclusive results (about 25%) are left out. Calls follow the shape of the dose curve; as a rule, active = well fitted inhibition curve with a large enough effect (not every such curve was filed as active); inconclusive = small, poorly fitted or top-dose-only effect, or another doubt; inactive = no such curve, though single readings can be large or run the other way. For the sample, actives were picked, then their nearest neighbours and some compounds at random.
Possible outcomes: active, inactive

>>> df
                                    molecule  assigned_category
 0  C/C(Cl)=C\Cn1c(Nc2cccc(C)c2)nc2c1c(=O)n(C)c(=O)n2C             active
 1                   CC(C)(C)NC(=O)NCc1ccco1           inactive
 2  CCC(=O)/C(=C(/O)c1ccccc1)c1nc2ccccc2[nH]1           inactive
 3  O=C(CN(C(=O)c1csnn1)c1cccc(F)c1)NCc1ccc(F)cc1           inactive
 4  COc1ccccc1CC(=O)Nc1ccc([N+](=O)[O-])cc1OC           inactive
 5  Cc1ccccc1C1CC(c2cccs2)=NN1S(C)(=O)=O (stereo unspecified)           inactive
 6              CC(C)(C)C(=O)CSc1nc2ccccc2o1           inactive
 7  Cn1c(=O)c2c(nc(N/N=C/c3cccs3)n2Cc2ccc(Br)cc2)n(C)c1=O           inactive
 8  CCn1c(O)c(N=NC(=O)c2cccc(S(=O)(=O)N3CCCCC3)c2)c2ccccc21           inactive
 9  C=CCn1c(Oc2ccc(C(=O)OC)cc2)nc2c1c(=O)n(C)c(=O)n2C           inactive
10  COc1ccccc1CSc1ncc(-c2ccc([N+](=O)[O-])cc2)[nH]1             active

---

assay_target: Aldehyde dehydrogenase 1A1 (Homo sapiens) (UniProt P00352)
assay_procedure: qHTS Assay for Inhibitors of Aldehyde Dehydrogenase 1 (ALDH1A1)
conditions: Purified ALDH1A1, NADH fluorescence, propionaldehyde substrate; series mostly up to 75.3 µM
Out of some 220,000 compounds screened, about 16,000 (7.3%) were called active. Roughly 25% stayed inconclusive and do not appear here. The call rests on the fitted dose curve; in most records, active means well fitted inhibition curve with a large enough effect (not every such curve was filed as active); inconclusive means small, poorly fitted or top-dose-only effect, or another doubt; inactive means no such curve, though single readings can be large or run the other way. Shown is part of a subset that was picked to be rich in actives.
Possible outcomes: T (active), F (inactive)

                                    compound  assigned_category
 0                       CN1CCN(C2=NCCO2)CC1                  F
 1      COc1ccc(C/C(N)=N/OC(=O)c2ccco2)cc1OC                  F
 2   CC(=O)Nc1ccc(NC(=O)COc2ncnc3ccccc23)cc1                  F
 3  C=CCn1cc(C(=O)NCc2ccc(Cl)cc2)c(=O)c2cc(S(=O)(=O)N(CC)CC)ccc21                  F
 4              Brc1ccc2ncnc(NCc3cccnc3)c2c1                  F
 5  CCOC(=O)C1=NO[C@@]2(C=C(Br)C(=O)[C@H]3O[C@H]32)C1                  F
 6  Cc1cc2oc(=O)cc(-c3ccccc3)c2c(C)c1/C=C/c1ccc(F)cc1                  F
 7            CN(C)/C=C/C(=O)c1cnc2sccn2c1=O                  F
 8  CC(Nc1ccccc1)c1cccnc1 (configuration not stated)                  F
 9  CCOC(=O)c1cc2c(=O)[nH]c(C(Cl)(Cl)Cl)nc2o1                  F
10  COc1ccc(C(F)(F)F)cc1N/C=C\c1nnnn1-c1ccc(C)cc1                  T
11  COc1ccc(/C(C)=N/Nc2cc(C(F)(F)F)ccc2Cl)c(OC)c1                  F

---

assay_target: Aldehyde dehydrogenase 1A1 (Homo sapiens)
assay_procedure: qHTS Assay for Inhibitors of Aldehyde Dehydrogenase 1 (ALDH1A1)
conditions: Purified ALDH1A1, NADH fluorescence, propionaldehyde substrate; series mostly up to 75.3 µM
Screen size: about 220,000 compounds; about 16,000 (7.3%) were called active. Another 25% or so got no clear call; they are omitted. The call rests on the fitted dose curve; in most records, active means well fitted inhibition curve with a large enough effect (not every such curve was filed as active); inconclusive means small, poorly fitted or top-dose-only effect, or another doubt; inactive means no such curve, though single readings can be large or run the other way. The sample as a whole holds a higher share of actives than the screen did.
Possible outcomes: active, inactive

>>> df
                                    compound                              assay_target  assigned_category
 0  Cc1ccc(C(=O)COC(=O)CCCC(=O)NC2CCCCC2)cc1[N+](=O)[O-]  Aldehyde dehydrogenase 1A1 (Homo sapiens)           inactive
 1      O=C1C(Cl)=C(N2CCOCC2)C(=O)N1c1ccccc1  Aldehyde dehydrogenase 1A1 (Homo sapiens)           inactive
 2    Cc1cccc(N(CC(=O)N2CCOCC2)S(C)(=O)=O)c1  Aldehyde dehydrogenase 1A1 (Homo sapiens)           inactive
 3  Cc1cc(C=O)c(C)n1-c1ccc(NC2CCCCC2)c([N+](=O)[O-])c1  Aldehyde dehydrogenase 1A1 (Homo sapiens)             active
 4  Cc1ccccc1-n1cc(CNC(=O)CC2C(=O)NCCN2C/C=C/c2ccccc2)cn1 (configuration not stated)  Aldehyde dehydrogenase 1A1 (Homo sapiens)           inactive
 5  Cc1ccc(S(=O)(=O)N(C)C)cc1NC(=O)COC(=O)C1COc2ccccc2O1 (configuration not stated)  Aldehyde dehydrogenase 1A1 (Homo sapiens)           inactive
 6  O=C1c2ccccc2C(=O)N1c1ccccc1S(=O)C(F)(F)F (configuration not stated)  Aldehyde dehydrogenase 1A1 (Homo sapiens)           inactive
 7  CCCCCCCCCCCCN1C(=O)CSC1c1cccnc1 (configuration not stated)  Aldehyde dehydrogenase 1A1 (Homo sapiens)           inactive
 8  Cc1cccc(N2CCN(C(=O)c3ccccc3NC(=O)C3CCCCC3C(=O)O)CC2)c1 (configuration not stated)  Aldehyde dehydrogenase 1A1 (Homo sapiens)           inactive
 9  Cc1cccc(N2C(=O)SC(N(CC(=O)O)c3cccc(C)c3)C2=O)c1 (configuration not stated)  Aldehyde dehydrogenase 1A1 (Homo sapiens)             active
10                   S=c1[nH]nc(Nc2ccccc2)s1  Aldehyde dehydrogenase 1A1 (Homo sapiens)             active
11  O=C1CCC[C@@H]2CC(N3CCCCC3)C[C@@H]3CCN1[C@H]23 (some centres not stated)  Aldehyde dehydrogenase 1A1 (Homo sapiens)           inactive
12  Cc1cc(C(=O)COC(=O)c2cccs2)c(C)n1-c1c(C)n(C)n(-c2ccccc2)c1=O  Aldehyde dehydrogenase 1A1 (Homo sapiens)             active
13  CC(C)c1ccc(N2CCN(C(=O)c3ccccc3NC(=O)/C=C(\C(=O)O)c3ccccc3)CC2)cc1  Aldehyde dehydrogenase 1A1 (Homo sapiens)             active
14            c1ccc(Nc2n[nH]nc2-c2ccccc2)cc1  Aldehyde dehydrogenase 1A1 (Homo sapiens)           inactive
15  O=C(O)C1CC=CCC1C(=O)Nc1ccccc1C(=O)N1CCN(c2ccccc2)CC1 (configuration not stated)  Aldehyde dehydrogenase 1A1 (Homo sapiens)           inactive
16                  CCCCc1ccc(S(N)(=O)=O)cc1  Aldehyde dehydrogenase 1A1 (Homo sapiens)           inactive
17        Cc1nc(C)c(-c2csc(NCCc3ccccc3)n2)s1  Aldehyde dehydrogenase 1A1 (Homo sapiens)           inactive
18  Cc1c(NS(=O)(=O)c2ccc(NC3CCCC3)c([N+](=O)[O-])c2)c(=O)n(-c2ccccc2)n1C  Aldehyde dehydrogenase 1A1 (Homo sapiens)           inactive
19  O=C(CC1C(=O)NCCN1CC(c1ccccc1)c1ccccc1)NCCc1cn[nH]c1 (configuration not stated)  Aldehyde dehydrogenase 1A1 (Homo sapiens)             active
20  CN(C)c1ccc(C=NCCc2ccc(S(N)(=O)=O)cc2)cc1  Aldehyde dehydrogenase 1A1 (Homo sapiens)             active
21  Cc1cc(C(=O)OCC(=O)NCc2ccco2)c(C)n1-c1ccccc1  Aldehyde dehydrogenase 1A1 (Homo sapiens)           inactive
